The compounds listed here are annotated with their pIC50.
System: 186277-243-T-J2-PDC complex spheroids, viability
Assay: Anticancer human tumor 186277-243-T-J2-PDC patient-derived colon adenocarcinoma cell line growth inhibition [RAS]
Conditions: curve of first compound; second compound 0.0949 µM
For clarity, pIC50 is expressed as the negative log10 of concentration in mol/L.

>>> value("CCc1c2c(nc3ccc(O)cc13)-c1cc3c(c(=O)n1C2)COC(=O)[C@]3(O)CC + CCn1c(-c2cccnc2C(C)OC)c2c3cc(ccc31)N1CCOC(CC(NC(=O)C(C(C)C)N(C)C(=O)C3(F)CCN(C(=O)C#CC(C)(C)N(C)C)CC3)C(=O)N3CCCC(N3)C(=O)OCC(C)(C)C2)C1")
8.12

Task: Entry CC1(O)CCCC1n1c(=O)c(C(F)F)cc2cnc(NC3CCN(S(C)(=O)=O)CC3)nc21 (centres undefined) + CCn1c(-c2cccnc2C(C)OC)c2c3cc(ccc31)N1CCOC(CC(NC(=O)C(C(C)C)N(C)C(=O)C3(F)CCN(C(=O)C#CC(C)(C)N(C)C)CC3)C(=O)N3CCCC(N3)C(=O)OCC(C)(C)C2)C1 , system 186277-243-T-J2-PDC complex spheroids, viability: what pIC50 was measured?
Output: 5.44

---

Tested on: 186277-243-T-J2-PDC complex spheroids, viability
Assay: Anticancer human tumor 186277-243-T-J2-PDC cell line growth inhibition [RAS];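 note: spheroids exposed to compounds for 7 days before viability read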
Details: second compound 0.01 µM; first compound 10 µM; stronger effect = lower value
metric-name: viability, T/C (%)
Reply numerically in %, unit not repeated.

Here's what some known entries look like.
>>> value("CC(C)NCC(C(=O)N1CCN(c2ncnc3c2C(C)CC3O)CC1)c1ccc(Cl)cc1 (stereo not given) + C=CC(=O)N1CCN(c2nc(OCC3CCCN3C)nc3c(F)c(-c4nc(N)cc(C)c4C(F)(F)F)c(Cl)cc23)C(C)C1")
33.6
>>> value("CC(=O)OC12COC1CC(O)C1(C)C(=O)C(O)C3=C(C)C(OC(=O)C(O)C(NC(=O)OC(C)(C)C)c4ccccc4)CC(O)(C(OC(=O)c4ccccc4)C21)C3(C)C (stereo not given) + C=CC(=O)N1CCN(c2nc(OCC3CCCN3C)nc3c(F)c(-c4nc(N)cc(C)c4C(F)(F)F)c(Cl)cc23)C(C)C1")
6.02

Task: For the compound Cc1nc(N2CCC3(CC2)COC(C)C3N)c(CO)nc1Sc1ccnc(N)c1Cl (stereo not given) + C=CC(=O)N1CCN(c2nc(OCC3CCCN3C)nc3c(F)c(-c4nc(N)cc(C)c4C(F)(F)F)c(Cl)cc23)C(C)C1 , what viability, T/C is on record?
Output: 78.7

Task: For the compound CC1(O)CCCC1n1c(=O)c(C(F)F)cc2cnc(NC3CCN(S(C)(=O)=O)CC3)nc21 (stereo not given) + C=CC(=O)N1CCN(c2nc(OCC3CCCN3C)nc3c(F)c(-c4nc(N)cc(C)c4C(F)(F)F)c(Cl)cc23)C(C)C1 , what viability, T/C is on record?
Output: 2.97

Task: For the compound CCC(CC)c1cc(NC2CCC(N)C2)n2nccc2n1 (stereo not given) + C=CC(=O)N1CCN(c2nc(OCC3CCCN3C)nc3c(F)c(-c4nc(N)cc(C)c4C(F)(F)F)c(Cl)cc23)C(C)C1 , what viability, T/C is on record?
Output: 0.49
